MEASURED_TARGET: ROCK2 (human) (UniProt O75116)
Sequence (O75116 whole entry, looked up): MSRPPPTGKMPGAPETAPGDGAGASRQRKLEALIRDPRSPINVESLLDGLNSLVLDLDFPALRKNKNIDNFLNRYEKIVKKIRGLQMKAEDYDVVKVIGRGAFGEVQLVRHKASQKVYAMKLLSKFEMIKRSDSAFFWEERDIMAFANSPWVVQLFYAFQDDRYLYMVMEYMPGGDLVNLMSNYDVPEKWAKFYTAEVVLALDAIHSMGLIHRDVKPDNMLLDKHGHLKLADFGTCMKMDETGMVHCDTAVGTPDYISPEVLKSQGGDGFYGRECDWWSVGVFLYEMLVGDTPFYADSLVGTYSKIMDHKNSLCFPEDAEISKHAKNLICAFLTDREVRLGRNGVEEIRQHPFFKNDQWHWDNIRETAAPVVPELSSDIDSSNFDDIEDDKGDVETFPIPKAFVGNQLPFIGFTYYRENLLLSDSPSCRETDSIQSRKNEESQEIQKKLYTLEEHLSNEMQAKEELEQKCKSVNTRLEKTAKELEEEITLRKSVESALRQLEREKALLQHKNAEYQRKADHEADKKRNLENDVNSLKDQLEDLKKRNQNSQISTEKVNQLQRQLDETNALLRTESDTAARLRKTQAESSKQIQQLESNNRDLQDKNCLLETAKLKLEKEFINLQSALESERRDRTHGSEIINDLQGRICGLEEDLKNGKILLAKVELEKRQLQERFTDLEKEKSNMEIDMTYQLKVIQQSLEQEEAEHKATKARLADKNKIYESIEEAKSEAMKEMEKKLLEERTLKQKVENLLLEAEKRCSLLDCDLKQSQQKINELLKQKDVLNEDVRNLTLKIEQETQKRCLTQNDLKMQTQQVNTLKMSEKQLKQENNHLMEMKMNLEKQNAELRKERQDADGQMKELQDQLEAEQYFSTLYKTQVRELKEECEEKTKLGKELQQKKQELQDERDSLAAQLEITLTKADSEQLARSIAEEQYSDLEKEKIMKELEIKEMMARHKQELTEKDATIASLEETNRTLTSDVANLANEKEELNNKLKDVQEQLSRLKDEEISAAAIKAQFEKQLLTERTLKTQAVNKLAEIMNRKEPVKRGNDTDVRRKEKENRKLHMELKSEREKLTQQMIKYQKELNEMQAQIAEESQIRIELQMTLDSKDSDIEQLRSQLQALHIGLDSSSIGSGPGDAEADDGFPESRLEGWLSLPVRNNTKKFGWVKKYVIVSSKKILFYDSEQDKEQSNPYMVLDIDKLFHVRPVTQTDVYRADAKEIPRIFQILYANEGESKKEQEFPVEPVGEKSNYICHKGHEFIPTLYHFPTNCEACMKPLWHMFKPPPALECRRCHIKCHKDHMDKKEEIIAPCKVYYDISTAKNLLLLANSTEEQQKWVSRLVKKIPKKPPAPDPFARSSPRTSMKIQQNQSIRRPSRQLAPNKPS
ASSAY_PROTOCOL: Enzyme Assay
pIC50: −log10 of the molar value.
VALUE_TYPE: pIC50

COMPOUND: CNC(=O)C[C@@H](NC(=O)c1ccc(-c2cn[nH]c2)c(C)c1)c1ccccc1
VALUE_TYPE: pIC50
REL: =
NUMERIC_RESULT: 7.66
--
COMPOUND: COCCC(=O)c1ccc(C(=O)Nc2cccc(CN3CCC(Nc4cccc5cnccc45)CC3)c2)cc1
VALUE_TYPE: pIC50
REL: >
NUMERIC_RESULT: 7.00
--
COMPOUND: COc1cccc([C@@H](C)NC(=O)c2cc3ccc(-c4cn[nH]c4)cc3[nH]2)c1
VALUE_TYPE: pIC50
REL: =
NUMERIC_RESULT: 9.00
--
COMPOUND: CC(C)OC(=O)Cc1cccc(NC(=O)c2cccc(-c3cc(C(=O)Nc4ccncc4F)ccc3CN)c2)c1
VALUE_TYPE: pIC50
REL: >
NUMERIC_RESULT: 9.00
--
COMPOUND: Nc1cccc(CN2CC[C@@H](Nc3cccc4cnccc34)C2)c1
VALUE_TYPE: pIC50
REL: =
NUMERIC_RESULT: 7.60
--
COMPOUND: C.COC(=O)c1ccc(C(=O)Nc2cccc(CNC3CCC(Nc4cccc5cnccc45)CC3)c2)cc1 (configuration not stated)
VALUE_TYPE: pIC50
REL: >
NUMERIC_RESULT: 7.00
--
COMPOUND: CC(C)COC(=O)c1cccc(NC(=O)c2cccc(-c3cc(C(=O)Nc4ccncc4F)ccc3CN)c2)c1
VALUE_TYPE: pIC50
REL: =
NUMERIC_RESULT: 8.59
